The measured values listed here are drawn from patent US7015215B2.

Listed below: Log LC 50 values for each entry.
# System: SNB-19
# protocol text: NCI SRB cytotoxicity, CNS SNB-19
# Format: cell-based, human
# experimental parameters: SNB-19, CNS, 48 h
Kindly provide the numeric value in mol/L only, without the unit symbol.

Check out these entries, answers already filled in.
compound="COc1cc2c(cc1OCCCN1CCN(CCCOc3cc4c(cc3OC)C(=O)N3CCC[C@H]3C=N4)CC1)N=C[C@@H]1CCCN1C2=O [Compound VIb]" outcome_measure="Log LC 50" units_symbol=mol/L result_value=−4.00
compound="COc1cc2c(cc1OCCCCCN1CCN(CCCCCOc3cc4c(cc3OC)C(=O)N3CCC[C@H]3C=N4)CC1)N=C[C@@H]1CCCN1C2=O [Compound VId]" outcome_measure="Log LC 50" units_symbol=mol/L result_value=−4.00
compound="COc1cc2c(cc1OCCCCN1CCN(CCCCOc3cc4c(cc3OC)C(=O)N3CCC[C@H]3C=N4)CC1)N=C[C@@H]1CCCN1C2=O [Compound VIc]" outcome_measure="Log LC 50" units_symbol=mol/L result_value=−4.44

Shift focus to the following entry.
Query block: Please give measured Log LC 50 of the following entry: COc1cc2c(cc1OCCN1CCN(CCOc3cc4c(cc3OC)C(=O)N3CCC[C@H]3C=N4)CC1)N=C[C@@H]1CCCN1C2=O [Compound VIa]
Result block: −4.00

---

Below, each entry is listed alongside its reported Log LC 50.
# Tested on: SF-295
# protocol text: NCI SRB cytotoxicity, CNS SF-295
# Type: cell-based, human
# experimental parameters: SF-295, CNS, 48 h
Numeric only. Scale: mol/L

smiles_structure=COc1cc2c(cc1OCCN1CCN(CCOc3cc4c(cc3OC)C(=O)N3CCC[C@H]3C=N4)CC1)N=C[C@@H]1CCCN1C2=O target_desc=SF-295 outcome_measure="Log LC 50" result_value=−4.00

Query block: Entry COc1cc2c(cc1OCCCN1CCN(CCCOc3cc4c(cc3OC)C(=O)N3CCC[C@H]3C=N4)CC1)N=C[C@@H]1CCCN1C2=O needs its Log LC 50 filled in; supply it.
Result block: −4.00

Query block: Provide one value: measured Log LC 50 of COc1cc2c(cc1OCCCCCN1CCN(CCCCCOc3cc4c(cc3OC)C(=O)N3CCC[C@H]3C=N4)CC1)N=C[C@@H]1CCCN1C2=O
Result block: −4.00

Query block: Report Log LC 50, nothing else, for this compound: COc1cc2c(cc1OCCCCN1CCN(CCCCOc3cc4c(cc3OC)C(=O)N3CCC[C@H]3C=N4)CC1)N=C[C@@H]1CCCN1C2=O
Result block: −4.69

---

Log LC 50 listing for selected compounds.
# Tested on: UO-31
# protocol text: NCI SRB cytotoxicity, Renal UO-31
# Format: cell-based, human
# experimental parameters: UO-31, Renal, 48 h
Record the value in mol/L, omitting the unit from your answer.

Query block: Answer with reported Log LC 50 of COc1cc2c(cc1OCCCCN1CCN(CCCCOc3cc4c(cc3OC)C(=O)N3CCC[C@H]3C=N4)CC1)N=C[C@@H]1CCCN1C2=O
Result block: −4.00

---

# Tested on: SK-MEL-5
# protocol text: NCI SRB cytotoxicity, Melanoma SK-MEL-5
# Type: cell-based, human
# experimental parameters: SK-MEL-5, Melanoma, 48 h
outcome measure: Log LC 50 (mol/L)
Enter your answer as a number in mol/L; do not include the unit.

Examples with their reported Log LC 50 follow.
smiles_structure=COc1cc2c(cc1OCCN1CCN(CCOc3cc4c(cc3OC)C(=O)N3CCC[C@H]3C=N4)CC1)N=C[C@@H]1CCCN1C2=O units_symbol=mol/L result_value=−4.00
smiles_structure=COc1cc2c(cc1OCCCCN1CCN(CCCCOc3cc4c(cc3OC)C(=O)N3CCC[C@H]3C=N4)CC1)N=C[C@@H]1CCCN1C2=O units_symbol=mol/L result_value=−6.68
smiles_structure=COc1cc2c(cc1OCCCCCN1CCN(CCCCCOc3cc4c(cc3OC)C(=O)N3CCC[C@H]3C=N4)CC1)N=C[C@@H]1CCCN1C2=O units_symbol=mol/L result_value=−4.00

Query block: Under SK-MEL-5: report Log LC 50 of COc1cc2c(cc1OCCCN1CCN(CCCOc3cc4c(cc3OC)C(=O)N3CCC[C@H]3C=N4)CC1)N=C[C@@H]1CCCN1C2=O .
Result block: −4.50
